These entries and their values trace back to ChEMBL document CHEMBL2429849.

Target chain: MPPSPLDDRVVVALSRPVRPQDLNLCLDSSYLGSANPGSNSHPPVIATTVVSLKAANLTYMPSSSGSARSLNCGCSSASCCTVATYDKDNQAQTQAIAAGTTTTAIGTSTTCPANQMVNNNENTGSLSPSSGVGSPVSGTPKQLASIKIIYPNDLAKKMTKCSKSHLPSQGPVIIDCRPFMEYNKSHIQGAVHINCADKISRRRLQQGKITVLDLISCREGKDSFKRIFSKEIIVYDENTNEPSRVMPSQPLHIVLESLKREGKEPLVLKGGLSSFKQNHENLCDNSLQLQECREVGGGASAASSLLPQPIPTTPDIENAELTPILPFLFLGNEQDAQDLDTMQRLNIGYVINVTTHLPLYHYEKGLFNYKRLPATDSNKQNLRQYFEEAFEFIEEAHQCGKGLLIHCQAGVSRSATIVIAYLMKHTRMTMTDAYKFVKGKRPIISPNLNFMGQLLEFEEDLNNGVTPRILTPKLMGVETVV
Catalogue of molecules with associated Ki
Readout name: Ki (µM)

INSERT INTO measurements (molecule_smiles, qualifier_operator, assay_value) VALUES
  ('O=P(O)(O)[C@H](O)c1ccc(-c2cccc([C@@H](O)c3ccc(Cl)c(Cl)c3)c2)cc1', '=', 340),
  ('O=P(O)(O)[C@H](O)c1ccc(-c2cccc([C@H](O)c3ccc(Cl)c(Cl)c3)c2)cc1', '>', 500);

* * *

# Target: Receptor-type tyrosine-protein phosphatase C (Homo sapiens, UniProt P08575)
# Sequence (P08575 whole entry): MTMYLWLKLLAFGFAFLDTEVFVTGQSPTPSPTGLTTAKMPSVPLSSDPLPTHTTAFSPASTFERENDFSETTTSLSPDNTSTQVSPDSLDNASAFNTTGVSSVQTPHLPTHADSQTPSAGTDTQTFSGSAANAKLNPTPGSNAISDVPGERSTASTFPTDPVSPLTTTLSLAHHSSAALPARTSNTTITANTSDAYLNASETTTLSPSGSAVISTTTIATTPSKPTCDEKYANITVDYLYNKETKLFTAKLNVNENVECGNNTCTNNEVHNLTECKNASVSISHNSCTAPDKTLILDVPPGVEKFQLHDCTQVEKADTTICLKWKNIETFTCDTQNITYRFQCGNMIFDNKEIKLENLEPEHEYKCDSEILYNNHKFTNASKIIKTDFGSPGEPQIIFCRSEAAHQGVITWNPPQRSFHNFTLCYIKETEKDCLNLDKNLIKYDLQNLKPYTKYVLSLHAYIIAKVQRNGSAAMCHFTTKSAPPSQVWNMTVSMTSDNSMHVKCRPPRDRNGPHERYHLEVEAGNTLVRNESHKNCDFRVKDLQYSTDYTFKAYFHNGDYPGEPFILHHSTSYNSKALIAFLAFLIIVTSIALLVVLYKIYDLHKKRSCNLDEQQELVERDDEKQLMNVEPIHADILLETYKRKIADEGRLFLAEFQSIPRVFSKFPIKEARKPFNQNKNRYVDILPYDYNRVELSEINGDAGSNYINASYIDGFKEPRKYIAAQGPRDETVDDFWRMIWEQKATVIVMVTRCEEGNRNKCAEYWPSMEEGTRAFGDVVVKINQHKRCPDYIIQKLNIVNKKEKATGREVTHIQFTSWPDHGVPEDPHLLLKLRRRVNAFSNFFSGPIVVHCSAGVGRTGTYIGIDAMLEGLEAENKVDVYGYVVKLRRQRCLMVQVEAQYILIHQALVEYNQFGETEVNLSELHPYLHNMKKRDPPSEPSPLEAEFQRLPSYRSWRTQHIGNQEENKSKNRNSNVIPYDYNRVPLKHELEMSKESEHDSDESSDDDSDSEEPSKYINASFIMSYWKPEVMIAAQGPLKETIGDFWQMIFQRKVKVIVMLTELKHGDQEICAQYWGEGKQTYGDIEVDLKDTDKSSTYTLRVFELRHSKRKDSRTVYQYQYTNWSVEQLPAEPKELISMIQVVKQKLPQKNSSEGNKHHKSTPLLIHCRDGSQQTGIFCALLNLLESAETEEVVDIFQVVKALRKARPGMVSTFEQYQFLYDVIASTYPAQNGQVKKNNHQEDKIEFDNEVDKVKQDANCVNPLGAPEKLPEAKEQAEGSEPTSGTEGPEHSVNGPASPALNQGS
Readout name: Ki (µM)

INSERT INTO results (molecule_smiles, units, qualifier_operator, assay_value) VALUES
  ('O=P(O)(O)[C@H](O)c1ccc(-c2cccc([C@H](O)c3ccc(Cl)c(Cl)c3)c2)cc1', 'µM', '=', 270),
  ('O=P(O)(O)C(F)(F)c1cccc(-c2cccc(C3CCCCC3)c2O)c1', 'µM', '>', 500),
  ('O=P(O)(O)[C@H](O)c1ccc(-c2cccc([C@@H](O)c3ccc(Cl)c(Cl)c3)c2)cc1', 'µM', '=', 340);

* * *

Reported Ki for target or system Tyrosine-protein phosphatase non-receptor type 2 (Homo sapiens, UniProt P17706), by entry.
Readout name: Ki (µM)

INSERT INTO results (molecule_smiles, target, units, assay_value) VALUES
  ('O=P(O)(O)[C@H](O)c1ccc(-c2cccc([C@H](O)c3ccc(Cl)c(Cl)c3)c2)cc1', 'Tyrosine-protein phosphatase non-receptor type 2 (Homo sapiens, UniProt P17706)', 'µM', 170),
  ('O=P(O)(O)[C@H](O)c1ccc(-c2cccc([C@@H](O)c3ccc(Cl)c(Cl)c3)c2)cc1', 'Tyrosine-protein phosphatase non-receptor type 2 (Homo sapiens, UniProt P17706)', 'µM', 164),
  ('O=P(O)(O)C(F)(F)c1cccc(-c2cccc(C3CCCCC3)c2O)c1', 'Tyrosine-protein phosphatase non-receptor type 2 (Homo sapiens, UniProt P17706)', 'µM', 71);

* * *

Reported Ki for target or system Tyrosine-protein phosphatase non-receptor type 5 (Homo sapiens), by entry.
Readout name: Ki (µM)

INSERT INTO assay_data (molecule_smiles, readout_name, assay_value) VALUES
  ('O=P(O)(O)[C@@H](O)c1ccc(-c2cccc([C@H](O)c3ccc(Cl)c(Cl)c3)c2)cc1', 'Ki', 93),
  ('CS(=O)(=O)Nc1cccc(-c2ccc(C(F)(F)P(=O)(O)O)cc2)c1', 'Ki', 113),
  ('O=P(O)(O)C(F)(F)c1cccc(-c2ccccc2)c1', 'Ki', 337),
  ('O=P(O)(O)C(F)(F)c1ccc(-c2ccccc2)cc1', 'Ki', 120),
  ('O=P(O)(O)[C@H](O)c1ccc(-c2cccc([C@@H](O)c3ccc(Cl)c(Cl)c3)c2)cc1', 'Ki', 8.9),
  ('O=P(O)(O)[C@H](O)c1ccc(-c2cccc([C@H](O)c3ccc(Cl)c(Cl)c3)c2)cc1', 'Ki', 7.8);

* * *

# Assay text: Effective permeability of the compound at pH 7.4 by PAMPA
# Format: ADME
# Study conditions: read-out: Peff
Readout name: Papp

INSERT INTO measurements (molecule_smiles, assay_value) VALUES
  ('O=P(O)(O)[C@H](O)c1ccc(-c2cccc([C@@H](O)c3ccc(Cl)c(Cl)c3)c2)cc1', '< 0.1 ×10⁻⁶ cm/s');
